tested-target: Muscarinic acetylcholine receptor (Homo sapiens) (UniProt P20309+P08173+P11229+P08172+P08912)
condition-description: Cavia porcellus
Description: In vivo antimuscarinic activity to decrease carbachol-stimulated salivation in guinea pig
endpoint-name: ID50
State the value with its unit after it.

Query: ID50; subject: C=CCCN1CCN(CC(=O)C(O)(c2ccccc2)C2CCC2)CC1 (stereo unspecified)
27.2 mg/kg

Request the reported ID50 associated with CN1CCN(CC(=O)C(O)(c2ccccc2)C2CCC2)CC1 (stereo unspecified)
0.72 mg/kg

Entry O=C(CN1CCNCC1)C(O)(c1ccccc1)C1CCC1 (stereo unspecified) : reported ID50 = ?
1.65 mg/kg

Please report the recorded ID50 for O=C(CN1CCN(Cc2cccs2)CC1)C(O)(c1ccccc1)C1CCC1 (stereo unspecified) .
25 mg/kg

ID50 lookup needed for C=CCN1CCN(CC(=O)C(O)(c2ccccc2)C2CCC2)CC1 (stereo unspecified) , thanks.
20.4 mg/kg

# ID50 lookup, item O=C(CN1CCN(Cc2ccccc2)CC1)C(O)(c1ccccc1)C1CCCC1 (stereo unspecified)
0.24 mg/kg

====

tested-target: Muscarinic acetylcholine receptor M3 (Cavia porcellus)
experiment-summary: Antagonist activity against muscarinic M3 receptor from guinea pig ileum
Assay type: functional, tissue-based
hey, just use rule met if measured Kb is less than 100 nM, otherwise rule not met

I wonder whether O=C(CN1CCN(Cc2ccc3c(c2)OCO3)CC1)C(O)(c1ccccc1)C1CCC1 (centres undefined) has Kb below 100 nM. Can you tell?
rule met

Would you kindly verify if Kb of O=C(CN1CCN(Cc2ccccc2)CC1)C(O)(c1ccccc1)C1CCCC1 (centres undefined) is strictly less than 100 nM?
rule met

Identify whether the molecule O=C(CN1CCN(Cc2ccccc2)CC1)C(O)(c1ccccc1)C1CC1 (centres undefined) records Kb below 100 nM.
rule met

Hello, I'm reviewing records and need to know if Kb of O=C(CN1CCN(CCO)CC1)C(O)(c1ccccc1)C1CCC1 (centres undefined) is below 100 nM. Could you check?
rule not met

Confirm or reject: Kb of O=C(CN1CCN(C/C=C\c2ccccc2)CC1)C(O)(c1ccccc1)C1CCC1 (centres undefined) lies strictly below 100 nM
rule met

Take the molecule O=C(CN1CCN(C(c2ccccc2)c2ccccc2)CC1)C(O)(c1ccccc1)C1CCC1 (centres undefined) and say whether its Kb is less than 100 nM.
rule not met

# TODO verify Kb < 100 nM strictly for this molecule: CCOc1ccccc1N1CCN(CC(=O)C(O)(c2ccccc2)C2CCC2)CC1 (centres undefined)
rule not met

Identify whether the molecule `O=C(CN1CCN(Cc2ccccc2)CC1)C(O)(c1ccccc1)c1ccccc1` records Kb below 100 nM.
rule met

Dear reviewer, please state whether C=CCN1CCN(CC(=O)C(O)(c2ccccc2)C2CCC2)CC1 (centres undefined) has Kb strictly beneath 100 nM.
rule met

I'd appreciate it if you could check whether COc1cccc(CN2CCN(CC(=O)C(O)(c3ccccc3)C3CCC3)CC2)c1 (centres undefined) has Kb smaller than 100 nM.
rule met

Threshold test, Kb < 100 nM: COc1ccc(CN2CCN(CC(=O)C(O)(c3ccccc3)C3CCC3)CC2)cc1 (centres undefined)
rule met

Determine whether this molecule shows Kb lower than 100 nM (ties excluded): CN1CCN(CC(=O)C(O)(c2ccccc2)C2CCCCC2)CC1 (centres undefined)
rule met

In plain terms, does O=C(CN1CCN(CC(=O)C(O)(c2ccccc2)C2CCC2)CC1)C(O)(c1ccccc1)C1CCC1 (centres undefined) come in under 100 nM for Kb?
rule not met

Does the reported Kb of the following molecule sit strictly below 100 nM? O=C(CN1CCN(CCc2ccccc2)CC1)C(O)(c1ccccc1)C1CCC1 (centres undefined)
rule not met

Say whether its Kb is strictly beneath 100 nM. Entry: O=C(CN1CCN(Cc2cccs2)CC1)C(O)(c1ccccc1)C1CCC1 (centres undefined)
rule met

Find out if reported Kb for O=C(CN1CCN(Cc2ccccc2)CC1)C(O)(c1ccccc1)C1CCCCC1 (centres undefined) is less than 100 nM
rule met

Consider O=C(CN1CCC(N2CCCC2)CC1)C(O)(c1ccccc1)C1CCC1 (centres undefined) . Does its Kb lie strictly below 100 nM?
rule not met

Report whether reported Kb is lower than 100 nM (strictly) for O=C(CN1CCN(c2ccc([N+](=O)[O-])cc2)CC1)C(O)(c1ccccc1)C1CCC1 (centres undefined)
rule not met

Given the entry CC(C)CC(O)(C(=O)CN1CCN(Cc2ccccc2)CC1)c1ccccc1 (centres undefined) , would its reported Kb be below 100 nM?
rule not met

Just wondering, is Kb of CN(C)CCNCC(=O)C(O)(c1ccccc1)C1CCCCC1 (centres undefined) below 100 nM?
rule met

# strict comparison: is reported Kb < 100 nM? input = O=C(CN1CCN(CCO)CC1)C(O)(c1ccccc1)C1CCCCC1 (centres undefined)
rule met

In plain terms, does C=CCN1CCN(CC(=O)C(O)(c2ccccc2)C2CCCCC2)CC1 (centres undefined) come in under 100 nM for Kb?
rule met

Is Kb strictly under 100 nM for the entry O=C(CN1CCN(Cc2cccc(Cl)c2)CC1)C(O)(c1ccccc1)C1CCC1 (centres undefined) ?
rule met

API: query returns whether the molecule falls strictly under 100 nM in Kb. Query: CC(C)=CCN1CCN(CC(=O)C(O)(c2ccccc2)C2CCC2)CC1 (centres undefined)
rule met

In the record for O=C(CN1CCN(Cc2ccccc2Cl)CC1)C(O)(c1ccccc1)C1CCC1 (centres undefined) , is Kb less than 100 nM?
rule met

Item Cc1ccccc1CN1CCN(CC(=O)C(O)(c2ccccc2)C2CCC2)CC1 (centres undefined) : Kb beneath 100 nM, strictly?
rule not met

Would you kindly verify if Kb of O=C(CN1CCC(N2CCCC2)CC1)C(O)(c1ccccc1)C1CCCCC1 (centres undefined) is strictly less than 100 nM?
rule not met

Answer whether the molecule COc1ccccc1N1CCN(CC(=O)C(O)(c2ccccc2)C2CCC2)CC1 (centres undefined) has Kb strictly less than 100 nM
rule not met

is_below(Kb, 100 nM) for CN1CCN(CC(=O)C(O)(c2ccccc2)C2CCC2)CC1 (centres undefined) ?
rule met

Hello, is Kb of the following molecule strictly smaller than 100 nM? O=C(CN1CCN(Cc2ccc(Cl)cc2)CC1)C(O)(c1ccccc1)C1CCC1 (centres undefined)
rule met

Here's an entry: C#CCN1CCN(CC(=O)C(O)(c2ccccc2)C2CCCCC2)CC1 (centres undefined) . Is its Kb below 100 nM?
rule not met

Identify whether the molecule Cc1ccc(CN2CCN(CC(=O)C(O)(c3ccccc3)C3CCC3)CC2)cc1 (centres undefined) records Kb below 100 nM.
rule met

For O=C(CN1CCC(O)CC1)C(O)(c1ccccc1)C1CCC1 (centres undefined) , is the recorded Kb below the cut-off of 100 nM?
rule not met

Quick check: Kb of O=C(CN1CCN(Cc2ccc([N+](=O)[O-])cc2)CC1)C(O)(c1ccccc1)C1CCC1 (centres undefined) under 100 nM?
rule not met

Strictly below 100 nM in Kb? CCOC(=O)N1CCN(CC(=O)C(O)(c2ccccc2)C2CCCCC2)CC1 (centres undefined)
rule not met

Strictly below 100 nM in Kb? O=C(CN1CCN(CC(=O)C(O)(c2ccccc2)C2CCC2)CC1)N1CCCC1 (centres undefined)
rule not met

Confirm or reject: Kb of O=C(CN1CCN(Cc2ccco2)CC1)C(O)(c1ccccc1)C1CCC1 (centres undefined) lies strictly below 100 nM
rule not met

In the record for O=C(CN1CCN(c2ccccc2)CC1)C(O)(c1ccccc1)C1CCC1 (centres undefined) , is Kb less than 100 nM?
rule not met

Strictly below 100 nM: is that where Kb of CCCN1CCN(CC(=O)C(O)(c2ccccc2)C2CCC2)CC1 (centres undefined) sits?
rule not met

Please let me know if N#CCN1CCN(CC(=O)C(O)(c2ccccc2)C2CCC2)CC1 (centres undefined) shows Kb below 100 nM.
rule not met

Please state whether Kb is below 100 nM for O=C(CN1CCN(C2CCC2)CC1)C(O)(c1ccccc1)C1CCC1 (centres undefined)
rule not met

Please determine if O=C(CN1CCNCC1)C(O)(c1ccccc1)C1CCC1 (centres undefined) is below 100 nM in terms of Kb.
rule met

Regarding C=CCCN1CCN(CC(=O)C(O)(c2ccccc2)C2CCC2)CC1 (centres undefined) , kindly confirm whether its Kb is beneath 100 nM.
rule met
